cell viability for assorted compounds
- System: P12-Ichikawa
- protocol-summary: cell viability relative to DMSO control; higher = less cytotoxic
- stated-conditions: RPMI 5 mM glucose + 10% dialyzed FBS; 48 h; 1.71 µM
reported-metric: cell viability (%)

[[record]]
compound = "Nc1c2c(nc3ccccc13)CCCC2"
result_value = 84.3

[[record]]
compound = "COC1=CC=C(C(=C1)OC(C)C)C/2=N/[C@@H]([C@@H](N2C(=O)N3CCNC(=O)C3)C4=CC=C(Cl)C=C4)C5=CC=C(Cl)C=C5"
result_value = 110

[[record]]
compound = "Oc1nc(-c2ccc(C(F)(F)F)cc2)nc2c1CSCC2"
result_value = 99

[[record]]
compound = "Nc1ccc([S+](=O)([O-])Nc2ccnn2-c2ccccc2)cc1"
result_value = 112

[[record]]
compound = "C=CC(=O)Nc1cc2c(Nc3ccc(F)c(Cl)c3)ncnc2cc1OCCCN1CCOCC1"
result_value = 108

[[record]]
compound = "CCc1ccc(/C=C2/SC(=S)NC2=O)cc1"
result_value = 83.5

[[record]]
compound = "O=C(O)c1cccnc1Nc1cccc(C(F)(F)F)c1"
result_value = 113

[[record]]
compound = "CN1CCCN(CC1)C2=CC=C3C(=O)\\C(=C/4SC5=C(C=CC=C5)N4C3=N2)C(=O)NCC6=CN=C(C)C=N6"
result_value = 92.1

[[record]]
compound = "COC(=O)C\\1=C(C)\\N\\C(=C(/C1C2=CC=CC3=NON=C23)C(=O)OC(C)C)C (stereo unspecified)"
result_value = 87.2

[[record]]
compound = "CC1=CC(=CC(=C1C\\C2=N\\CCN2)C)C(C)(C)C"
result_value = 102

[[record]]
compound = "CNc1nc(Nc2cnn([C@H]3CCN(C4COC4)C[C@@H]3F)c2Cl)ncc1C(F)(F)F"
result_value = 93.1

[[record]]
compound = "CC[C@H]1OC(=O)[C@H](C)C(=O)[C@H](C)[C@@H](O[C@H]2O[C@H](C)C[C@H](N(C)C)[C@H]2O)[C@](C)(OC)C[C@@H](C)C(=O)[C@H](C)[C@H]2N(CCCCn3cnc(-c4cccnc4)c3)C(=O)O[C@]12C"
result_value = 89.9

[[record]]
compound = "Nc1ncnc2c1ncn2[C@@H]1O[C@H](CO)C[C@H]1O"
result_value = 87.6

[[record]]
compound = "CC12CC3CC(C)(C1)CC(N)(C3)C2"
result_value = 127

[[record]]
compound = "C[C@@H](CN1CC(=O)NC(=O)C1)N1CC(=O)NC(=O)C1"
result_value = 19.7

[[record]]
compound = "CCCCCNC(=O)N1CCC(CN(Cc2ccc(Cl)cc2)Cc2ccc([N+](=O)[O-])s2)C1 (stereo unspecified)"
result_value = 95.2

